# MEASURED TARGET: T1, human CD19 (human, UniProt P15391 20-556)
# T1 construct: CD19 as expressed on Raji, NALM-6 and SU-DHL-6 cells; also called CD19 antigen; B-cell surface antigen B4
# T1 sequence: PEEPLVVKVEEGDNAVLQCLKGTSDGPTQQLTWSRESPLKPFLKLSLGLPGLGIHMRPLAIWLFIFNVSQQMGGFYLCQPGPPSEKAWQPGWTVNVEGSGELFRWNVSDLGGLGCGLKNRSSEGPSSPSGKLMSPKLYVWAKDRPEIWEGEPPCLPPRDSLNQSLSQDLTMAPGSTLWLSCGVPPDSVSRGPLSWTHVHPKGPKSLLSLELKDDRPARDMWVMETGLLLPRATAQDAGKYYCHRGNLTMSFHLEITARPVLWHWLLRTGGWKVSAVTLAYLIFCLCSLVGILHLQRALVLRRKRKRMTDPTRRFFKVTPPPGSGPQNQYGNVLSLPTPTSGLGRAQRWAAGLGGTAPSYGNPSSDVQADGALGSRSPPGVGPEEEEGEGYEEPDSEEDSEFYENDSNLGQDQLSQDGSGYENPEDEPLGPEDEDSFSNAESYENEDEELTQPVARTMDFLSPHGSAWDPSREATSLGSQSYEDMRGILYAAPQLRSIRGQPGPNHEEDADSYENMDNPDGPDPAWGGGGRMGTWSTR
# EXPERIMENT NOTES: flow cytometry, Raji cells, MPF vs chimeric FMC63
Can you tell me relative MPF (% of chimeric FMC63) for the items I'm about to list?
Please make sure the unit comes right after the number.

Ask: Dear colleague, please send me the reported relative MPF (% of chimeric FMC63) for VH16 Y32F/R94K/VL43 V3Q/T7S/P44I/N92A (antibody, human IgG1, name in Kabat numbering, V domains shown, Full-length human IgG1/kappa; substitutions in Kabat numbering) VH: QVQLVQSGGGVVQPGRSLRLSCAASGVSLPDFGVSWVRQAPGKGLEWVAVIWGSETTYYNSALKSRFTISRDNSKNTLYLQMNSLRAEDTAVYYCAKHYYYGGSYAMDYWGQGTLVTVSS VL: DIQMTQSPSSLSASVGDRVTITCRASQDISKYLNWYQQKPGKAIKLLIYHTSRLHSGVPSRFSGSGSGTDFTLTISSLQPEDFATYYCQQGATLPYTFGPGTKVDIKR when you can.
Result: 133%

Ask: Dear colleague, please send me the reported relative MPF (% of chimeric FMC63) for VH16-R71K/VL43 (antibody, human IgG1, name in Kabat numbering, V domains shown, substitutions in Kabat numbering) VH: QVQLVQSGGGVVQPGRSLRLSCAASGVSLPDYGVSWVRQAPGKGLEWVAVIWGSETTYYNSALKSRFTISKDNSKNTLYLQMNSLRAEDTAVYYCARHYYYGGSYAMDYWGQGTLVTVSS VL: DIVMTQTPSSLSASVGDRVTITCRASQDISKYLNWYQQKPGKAPKLLIYHTSRLHSGVPSRFSGSGSGTDFTLTISSLQPEDFATYYCQQGNTLPYTFGPGTKVDIKR when you can.
Result: 4.43%

Ask: Dear colleague, please send me the reported relative MPF (% of chimeric FMC63) for VH16/VL43-F71Y (antibody, human IgG1, V domains shown, substitutions in Kabat numbering) VH: QVQLVQSGGGVVQPGRSLRLSCAASGVSLPDYGVSWVRQAPGKGLEWVAVIWGSETTYYNSALKSRFTISRDNSKNTLYLQMNSLRAEDTAVYYCARHYYYGGSYAMDYWGQGTLVTVSS VL: DIVMTQTPSSLSASVGDRVTITCRASQDISKYLNWYQQKPGKAPKLLIYHTSRLHSGVPSRFSGSGSGTDYTLTISSLQPEDFATYYCQQGNTLPYTFGPGTKVDIKR when you can.
Result: 11.3%
